Test: self-splicing fitness, log relative to wild type (ln ratio); higher = more splicing; Tetrahymena group I intron in knt gene, E. coli kanamycin selection, DiMSum; sequences stand for … in CUCUCU…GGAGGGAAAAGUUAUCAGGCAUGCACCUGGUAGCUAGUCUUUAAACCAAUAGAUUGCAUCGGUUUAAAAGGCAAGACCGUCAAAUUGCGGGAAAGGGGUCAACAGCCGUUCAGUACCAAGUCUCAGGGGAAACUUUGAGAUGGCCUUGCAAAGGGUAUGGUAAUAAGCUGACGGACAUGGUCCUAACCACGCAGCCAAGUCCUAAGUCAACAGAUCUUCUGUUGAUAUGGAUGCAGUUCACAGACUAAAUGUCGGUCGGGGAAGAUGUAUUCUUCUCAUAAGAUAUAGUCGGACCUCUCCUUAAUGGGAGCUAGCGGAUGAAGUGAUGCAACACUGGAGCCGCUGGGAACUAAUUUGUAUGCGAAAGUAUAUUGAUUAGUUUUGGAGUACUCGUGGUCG;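 note: selection with 25 µg/mL kanamycin versus none on LB agar overnight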
Settings: 30 °C
Label rule, in plain words: self-splicing fitness (ln) of -2 and up is MET, under -2 is NOT MET.

AGAUAGCAAUAUUACGUACG :: MET
UAAGAGCAAUAUUACGCGGU :: NOT MET
CUCCAGCAAUAUUACGAGCC :: NOT MET
GCCGAGCAAUAUUACGCCUA :: NOT MET
CAAGAGCAAUAUUACGAGCC :: NOT MET
CGGUAGCAAUAUUACGCGGC :: NOT MET

Now let's try a different one.
input: API: above_or_equal(metric=self-splicing fitness (ln), cutoff=-2) for item `AGAGAGCAAUAUUACGGCUC`
output: NOT MET
